# Measurement Target: T1, HLA-DP401 (HLA-DPB1*04:01) (human, UniProt P20036 29-222)
# T1 construct: mature; purified from homozygous EBV-transformed lymphoblastoid cells with antibody B7/21
# T1 sequence (P20036 29-222 limits assumed, chain 1 of 3, other chains not shown): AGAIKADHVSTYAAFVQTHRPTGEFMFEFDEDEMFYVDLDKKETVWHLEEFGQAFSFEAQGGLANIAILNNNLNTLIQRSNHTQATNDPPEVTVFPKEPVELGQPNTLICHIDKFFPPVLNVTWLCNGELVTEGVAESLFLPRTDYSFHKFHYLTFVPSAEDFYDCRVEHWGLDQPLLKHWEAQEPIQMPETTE
# Test Protocol: competition ELISA vs biotin-Oxy 271-287
No end group written: not given here.
Items are presented alongside their recorded relative affinity.
Just the number.

AKYLMELTMLDYDMV-NH2 [CCNB1 323-337] : 1
MEMKILRALNFGLGR-NH2 [CCNB1 285-299] : 30
PQLNSALVQDLAKAV-NH2 [CCNB1 416-430] : 59

Kindly consider the entry below.
Recorded relative affinity of HTLAKYLMELTMLDY-NH2 [CCNB1 320-334] , please. 8
